Tested on: Keap1 (Homo sapiens (Human))
Assay explanation: HEK293 ARE luciferase assay
Assay context: HEK-293 ARE firefly luciferase transiently transfected cells; 18 h incubation; mean of 1 to 20 individual measurements
Property measured: EC50 (µM)
Numeric answer only, unit µM assumed.

Ask: Please look up its EC50: COC1(c2ncc(F)cc2-c2cc(C)nc(C)c2)C=C(C#N)C(=O)C(C)(C)C1 (single isomer, unassigned) [Compound 77]
Reply: 0.004

Ask: Thanks! And COC1(c2ncc(F)cc2-c2cncc(C(F)(F)F)c2)C=C(C#N)C(=O)C(C)(C)C1 (single isomer, unassigned) [Compound 215] ?
Reply: 0.015

Ask: Thanks! And COc1cc(-c2cc(F)cnc2C2(OC)C=C(C#N)C(=O)C(C)(C)C2)c(Cl)cn1 (single isomer, unassigned) ?
Reply: 0.023

Ask: Thanks! And COC1(c2ccc(Cl)cn2)C=C(C#N)C(=O)C2(CC2)C1 (stereo not shown) ?
Reply: 0.247

Ask: Thanks! And COC1(c2ncccc2OC(F)(F)F)C=C(C#N)C(=O)C(C)(C)C1 (stereo not shown) [Compound 147] ?
Reply: 0.022

Ask: Thanks! And COC1(c2ncccc2OC(F)(F)F)C=C(C#N)C(=O)C(C)(C)C1 (single isomer, unassigned) [Compound 41] ?
Reply: 0.011

Ask: Thanks! And COC1(c2cncc(C)n2)C=C(C#N)C(=O)C(C)(C)C1 (stereo not shown) ?
Reply: 0.458

Ask: Thanks! And COC1(c2ncc(F)cn2)C=C(C#N)C(=O)C(C)(C)C1 (single isomer, unassigned) ?
Reply: 0.021

Ask: Thanks! And CCCc1cccnc1C1(OC)C=C(C#N)C(=O)C(C)(C)C1 (single isomer, unassigned) [Compound 101] ?
Reply: 0.033

Ask: Thanks! And COC1(c2ncc(F)cc2-c2cccn(C)c2=O)C=C(C#N)C(=O)C(C)(C)C1 (stereo not shown) [Compound 171] ?
Reply: 0.136

Ask: Thanks! And COC1(c2ncc(Cl)cc2C(F)F)C=C(C#N)C(=O)C(C)(C)C1 (stereo not shown) [Compound 158] ?
Reply: 0.021

Ask: Thanks! And COC1(c2ncc(F)cc2C(F)F)C=C(C#N)C(=O)C(C)(C)C1 (stereo not shown) ?
Reply: 0.047

Ask: Thanks! And COC1(c2cccc(C3CC3)n2)C=C(C#N)C(=O)C(C)(C)C1 (stereo not shown) ?
Reply: 0.185

###

Tested on: Keap1 (Homo sapiens (Human), UniProt Q14145)
Sequence (Q14145 whole entry): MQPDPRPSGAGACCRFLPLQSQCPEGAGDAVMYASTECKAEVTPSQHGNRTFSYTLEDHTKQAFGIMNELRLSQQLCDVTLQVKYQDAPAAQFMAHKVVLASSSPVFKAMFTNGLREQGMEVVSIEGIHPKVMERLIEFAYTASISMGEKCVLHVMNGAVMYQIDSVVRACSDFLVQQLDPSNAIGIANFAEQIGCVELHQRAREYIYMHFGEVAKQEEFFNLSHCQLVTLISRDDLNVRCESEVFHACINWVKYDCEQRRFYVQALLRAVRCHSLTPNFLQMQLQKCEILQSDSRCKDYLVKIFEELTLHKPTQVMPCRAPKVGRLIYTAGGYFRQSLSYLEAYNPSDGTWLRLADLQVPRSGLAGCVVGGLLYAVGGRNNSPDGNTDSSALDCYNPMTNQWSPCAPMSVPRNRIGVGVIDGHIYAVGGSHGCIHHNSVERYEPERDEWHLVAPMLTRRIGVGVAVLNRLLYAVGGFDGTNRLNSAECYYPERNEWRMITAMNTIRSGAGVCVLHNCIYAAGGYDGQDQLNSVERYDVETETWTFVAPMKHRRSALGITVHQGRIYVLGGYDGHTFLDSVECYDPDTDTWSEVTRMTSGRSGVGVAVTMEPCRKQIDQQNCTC
Assay explanation: HEK293 ARE luciferase assay
Assay context: HEK-293 ARE firefly luciferase transiently transfected cells; 18 h incubation; mean of 1 to 20 individual measurements
# if measured EC50 < 0.05 µM: 1  # else: -1

Solved entries:
{"columns": ["Compound", "Label class"],
 "data": [
  ["COC1(c2cccnc2Br)C=C(C#N)C(=O)C(C)(C)C1 (centres unmarked) [Compound 21]", -1],
  ["COC1(c2nc(C)cs2)C=C(C#N)C(=O)C2(CC2)C1 (single isomer, unassigned) [Compound 59]", -1],
  ["COC1(c2ncc(F)cc2-c2cnn(C)c2)C=C(C#N)C(=O)C(C)(C)C1 (single isomer, unassigned) [Compound 69]", 1],
  ["COC1(c2ncc(F)cc2-c2cnn(C3CCCC3)c2)C=C(C#N)C(=O)C(C)(C)C1 (centres unmarked) [Compound 180]", -1],
  ["COC1(c2ncc(F)cc2-c2cnc3c(c2)OCCN3C)C=C(C#N)C(=O)C(C)(C)C1 (single isomer, unassigned) [Compound 205]", -1],
  ["COC1(c2cccc(-c3cnc(C)nc3)n2)C=C(C#N)C(=O)C2(CC2)C1 (single isomer, unassigned) [Compound 50]", 1],
  ["COC1(c2ncc(Cl)cc2C(F)F)C=C(C#N)C(=O)C(C)(C)C1 (single isomer, unassigned) [Compound 45]", 1],
  ["CC#Cc1cccc(C2(OC)C=C(C#N)C(=O)C(C)(C)C2)n1 (centres unmarked) [Compound 103]", -1]
]}

Ask: Record COC1(c2ncc(F)cc2-c2ccnc(S(=O)(=O)N(C)C)c2)C=C(C#N)C(=O)C(C)(C)C1 (single isomer, unassigned) [Compound 207] : is its EC50 strictly below 0.05 µM?
Reply: 1

Ask: Thanks! And COC1(c2scnc2C)C=C(C#N)C(=O)C(C)(C)C1 (single isomer, unassigned) [Compound 43] ?
Reply: -1

Ask: Thanks! And COC1(c2ncc(F)cc2F)C=C(C#N)C(=O)C2(CC2)C1 (centres unmarked) [Compound 156] ?
Reply: -1

Ask: Thanks! And COC1(c2ncc(F)cc2-c2cnn(CC(F)(F)F)c2)C=C(C#N)C(=O)C(C)(C)C1 (single isomer, unassigned) [Compound 228] ?
Reply: 1

Ask: Thanks! And COC1(c2ncc(F)cc2Br)C=C(C#N)C(=O)C(C)(C)C1 (single isomer, unassigned) [Compound 48] ?
Reply: 1

Ask: Thanks! And COC1(c2ncc(F)cc2-c2ccc3ncnn3c2)C=C(C#N)C(=O)C(C)(C)C1 (single isomer, unassigned) [Compound 212] ?
Reply: 1
